Please respond with reported DC50 for every item in the list.
- subjectOfTest: IRAK4 (Homo sapiens, UniProt Q9NWZ3)
- protocol: WB detection of proteolysis (Western Blot, THP-1 cells)
- Type: cell-based
- conditionsUsed: Western Blot, THP-1 cells, 24 h; read-out: DC50
Structures can show the parent of a compound that is named as a salt.

Example compounds with recorded DC50:
[[record]]
compound = "Cn1c(=O)n(C2CCC(=O)NC2=O)c2cccc(N[C@H]3CC[C@H](N(C)C[C@H]4CC[C@H](n5cc(-n6cc(-n7ccc8cc(C(N)=O)cnc87)nn6)c(C(F)F)n5)CC4)CC3)c21 (stereo partly drawn) [Example 102]"
valueobserved = "0.01 to 0.03 µM"

[[record]]
compound = "Cn1c(=O)n(C2CCC(=O)NC2=O)c2cccc(N3CCC4(CCN(C[C@H]5CC[C@H](n6cc(-n7cc(-c8cnn9ccc(N%10CCNCC%10)nc89)nn7)c(C(F)F)n6)CC5)C4)CC3)c21 (stereo partly drawn) [Example 128, dihydrochloride]"
valueobserved = "< 0.01 µM"


For the next question, use this compound.
Lab book: DC50 of Cn1c(=O)n(C2CCC(=O)NC2=O)c2cccc(N3CCC4(CC3)CN(C[C@H]3CC[C@H](n5cc(-n6cc(-c7ccc8cc(C(N)=O)cnn78)nn6)c(C(F)F)n5)CC3)C4)c21 (stereo partly drawn) [Example 64] noted as > 0.03 µM

----------
- subjectOfTest: IRAK4 (Homo sapiens)
- Sequence (Q9NWZ3 1-460): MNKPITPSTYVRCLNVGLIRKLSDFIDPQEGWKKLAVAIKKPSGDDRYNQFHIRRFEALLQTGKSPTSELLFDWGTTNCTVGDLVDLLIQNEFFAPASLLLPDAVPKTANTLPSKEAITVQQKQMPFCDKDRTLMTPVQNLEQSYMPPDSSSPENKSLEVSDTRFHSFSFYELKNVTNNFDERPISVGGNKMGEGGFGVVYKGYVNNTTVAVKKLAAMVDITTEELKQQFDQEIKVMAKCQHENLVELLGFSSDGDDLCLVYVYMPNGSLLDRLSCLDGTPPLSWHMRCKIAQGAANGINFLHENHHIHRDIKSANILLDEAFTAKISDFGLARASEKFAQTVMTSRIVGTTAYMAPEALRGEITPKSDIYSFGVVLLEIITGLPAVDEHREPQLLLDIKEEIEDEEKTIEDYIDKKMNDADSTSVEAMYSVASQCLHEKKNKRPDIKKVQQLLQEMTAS
- protocol: Hibit fluorescence detection of proteolysis (IRAK4-HiBiT in HEK293T cells)
- Assay type: cell-based
- Parameters: host or cells: HEK293T (ATCC)
- conditionsUsed: IRAK4-HiBiT, HEK293T cells, 24 h
Structures can show the parent of a compound that is named as a salt.
readoutType: DC50

Example molecules with recorded DC50:
[[record]]
molecule = "Cn1c(=O)n(C2CCC(=O)NC2=O)c2cccc(N3CCC(N4CCN(C[C@H]5CC[C@H](n6cc(-n7cc(-c8cnn9ccc(N%10CCC[C@H](N)C%10)nc89)nn7)c(C(F)F)n6)CC5)CC4)CC3)c21 (stereo partly drawn) [Example 150, hydrochloride]"
valueobserved = "< 0.5 nM"

[[record]]
molecule = "Cn1c(=O)n(C2CCC(=O)NC2=O)c2cccc(N3CCC4(CC3)CN(C[C@H]3CC[C@H](n5cc(-n6cc(-c7cnn8ccc(N9CCOCC9)nc78)nn6)c(C(F)F)n5)CC3)CCO4)c21 (stereo partly drawn) [Example 41]"
valueobserved = "1 to 5 nM"


For the next question, use this molecule.
Lab book: DC50 of Cn1c(=O)n(C2CCC(=O)NC2=O)c2cccc(N3CC4CCC(C3)N4C[C@H]3CC[C@H](n4cc(-n5cc(-c6ccc7cc(C(N)=O)cnn67)nn5)c(C(F)F)n4)CC3)c21 (stereo partly drawn) [Example 86] noted as 1 to 5 nM

----------
- subjectOfTest: IRAK4 (Homo sapiens)
- Sequence (Q9NWZ3 1-460): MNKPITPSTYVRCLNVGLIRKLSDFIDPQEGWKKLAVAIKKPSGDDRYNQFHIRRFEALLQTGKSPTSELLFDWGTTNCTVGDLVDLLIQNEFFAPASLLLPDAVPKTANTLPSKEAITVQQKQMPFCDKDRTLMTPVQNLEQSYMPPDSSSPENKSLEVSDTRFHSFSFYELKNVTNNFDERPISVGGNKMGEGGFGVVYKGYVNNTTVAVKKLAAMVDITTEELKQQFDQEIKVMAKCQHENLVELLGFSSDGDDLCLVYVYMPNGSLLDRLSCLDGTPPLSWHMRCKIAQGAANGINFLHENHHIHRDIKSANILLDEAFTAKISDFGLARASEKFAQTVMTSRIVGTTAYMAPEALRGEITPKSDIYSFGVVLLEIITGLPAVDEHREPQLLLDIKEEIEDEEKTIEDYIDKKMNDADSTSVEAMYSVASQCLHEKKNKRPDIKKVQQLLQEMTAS
- protocol: Hibit fluorescence detection of proteolysis (IRAK4-HiBiT in HEK293T cells)
- Format: cell-based
- Parameters: host or cells: HEK293T (ATCC)
- conditionsUsed: HEK-293T
readoutType: Dmax

Example compounds with recorded Dmax:
[[record]]
compound = "NC(=O)c1cnn2c(-c3cn(-c4cn([C@H]5CC[C@H](CN6CCN(c7ccc8c(c7)C(=O)N(C7CCC(=O)NC7=O)C8=O)CC6)CC5)nc4C(F)F)nn3)ccc2c1 (stereo partly drawn) [Example 70]"
valueobserved = "70 to 80%"

[[record]]
compound = "C[C@H]1COCCN1c1ccn2ncc(-c3cn(-c4cn([C@H]5CC[C@H](CN6CCC7(CC6)CCN(c6cccc8c6n(C)c(=O)n8C6CCC(=O)NC6=O)C7)CC5)nc4C(F)F)nn3)c2n1 (stereo partly drawn) [Compound 204]"
valueobserved = "70 to 80%"


For the next question, use this compound.
Lab book: Dmax of NC(=O)c1cnn2c(-c3cn(-c4cn(C5CCN(CC6CCC7(CC6)CCN(C(=O)c6ccc(Cl)c(N8CCC(=O)NC8=O)c6)CC7)CC5)nc4C(F)F)nn3)ccc2c1 [Example 77] noted as 70 to 80%

----------
- subjectOfTest: IRAK4 (Homo sapiens, UniProt Q9NWZ3)
- protocol: Hibit fluorescence detection of proteolysis (IRAK4-HiBiT in HEK293T cells)
- Format: cell-based
- Set-up: host or cells: HEK293T (ATCC)
- conditionsUsed: IRAK4-HiBiT, HEK293T cells, 24 h
readoutType: DC50

For the 5 molecules below, give their DC50 values.
1. Cn1c(=O)n(C2CCC(=O)NC2=O)c2cccc(N3CCC4(CCN(C[C@H]5CC[C@H](n6cc(-n7cc(-n8ccc9cc(C(N)=O)cnc98)nn7)c(C(F)F)n6)CC5)CC4)C3)c21 (some centres unmarked)
2. Cn1c(=O)n(C2CCC(=O)NC2=O)c2cccc(N3CCC(N4CCN(C[C@H]5CC[C@H](n6cc(-n7cc(-c8cnn9ccc(N%10CCS(=O)(=O)CC%10)nc89)nn7)c(C(F)F)n6)CC5)CC4)CC3)c21 (some centres unmarked)
3. Cn1c(=O)n(C2CCC(=O)NC2=O)c2cccc(N3CCC4(CCN(C[C@H]5CC[C@H](n6cc(-n7cc(-c8cnn9ccc(N%10CCOCC%10)nc89)nn7)c(C(F)F)n6)CC5)CC4)C3)c21 (some centres unmarked)
4. Cn1c(=O)n(C2CCC(=O)NC2=O)c2cccc(NC(=O)C3CCN(C[C@H]4CC[C@H](n5cc(-n6cc(-c7ccc8cc(C(N)=O)cnn78)nn6)c(C(F)F)n5)CC4)CC3)c21 (some centres unmarked)
5. Cn1c(=O)n(C2CCC(=O)NC2=O)c2cccc(N3CC4CN(C[C@H]5CC[C@H](n6cc(-n7cc(-c8ccc9cc(C(N)=O)cnn89)nn7)c(C(F)F)n6)CC5)CC4C3)c21 (some centres unmarked)

(A)
["< 0.5 nM", "0.5 to 1 nM", "< 0.5 nM", "> 5 nM", "< 0.5 nM"]

----------
Please respond with reported Dmax for every item in the list.
- subjectOfTest: IRAK4 (Homo sapiens)
- protocol: WB detection of proteolysis (Western Blot, THP-1 cells)
- Assay type: cell-based
- conditionsUsed: Western Blot, THP-1 cells, 24 h; read-out: Dmax

Example compounds with recorded Dmax:
[[record]]
compound = "Cn1c(=O)n(C2CCC(=O)NC2=O)c2cccc(N3CCC4(CCN(C[C@H]5CC[C@H](n6cc(-n7cc(-c8cnn9ccc(N[C@@H]%10CCCC[C@@H]%10O)nc89)nn7)c(C(F)F)n6)CC5)C4)CC3)c21 (stereo partly shown)"
readouttype = "Dmax"
valueobserved = "> 70%"

[[record]]
compound = "Cn1c(=O)n(C2CCC(=O)NC2=O)c2cccc(N3CCC(N4CCN(C[C@H]5CC[C@H](n6cc(-n7cc(-c8cnn9ccc(N%10CCC[C@@H](O)C%10)nc89)nn7)c(C(F)F)n6)CC5)CC4)CC3)c21 (stereo partly shown)"
readouttype = "Dmax"
valueobserved = "> 70%"

[[record]]
compound = "Cn1nc(C2CCC(=O)NC2=O)c2cccc(N3CCC(N4CCN(C[C@H]5CC[C@H](n6cc(-n7cc(-c8cnn9ccc(N%10CCC[C@H](O)C%10)nc89)nn7)c(C(F)F)n6)CC5)CC4)CC3)c21 (stereo partly shown)"
readouttype = "Dmax"
valueobserved = "> 70%"

[[record]]
compound = "Cn1c(=O)n(C2CCC(=O)NC2=O)c2cccc(N3CCC4(CCN(C[C@H]5CC[C@H](n6cc(-n7cc(-n8ccc9cc(C(N)=O)cnc98)nn7)c(C(F)F)n6)CC5)CC4)CC3)c21 (stereo partly shown)"
readouttype = "Dmax"
valueobserved = "< 60%"

[[record]]
compound = "Cn1c(=O)n(C2CCC(=O)NC2=O)c2cccc(N[C@H]3CC[C@H](N(C)C[C@H]4CC[C@H](n5cc(-n6cc(-c7ccc8cc(C(N)=O)cnn78)nn6)c(C(F)F)n5)CC4)CC3)c21 (stereo partly shown)"
readouttype = "Dmax"
valueobserved = "60 to 70%"

[[record]]
compound = "Cn1c(=O)n(C2CCC(=O)NC2=O)c2cccc(N3CCC4(CCN(C[C@H]5CC[C@H](n6cc(-n7cc(-n8ccc9cc(C(N)=O)cnc98)nn7)c(C(F)F)n6)CC5)CC4)C3)c21 (stereo partly shown)"
readouttype = "Dmax"
valueobserved = "< 60%"


For the next question, use this compound.
Lab book: Dmax of Cn1c(=O)n(C2CCC(=O)NC2=O)c2cccc(N[C@H]3CC[C@H](N(C)C[C@H]4CC[C@H](n5cc(-n6cc(-n7ccc8cc(C(N)=O)cnc87)nn6)c(C(F)F)n5)CC4)CC3)c21 (stereo partly shown) noted as < 60%
